Target: human TRPA1 (Homo sapiens (Human), UniProt O75762)
Sequence (O75762 whole entry): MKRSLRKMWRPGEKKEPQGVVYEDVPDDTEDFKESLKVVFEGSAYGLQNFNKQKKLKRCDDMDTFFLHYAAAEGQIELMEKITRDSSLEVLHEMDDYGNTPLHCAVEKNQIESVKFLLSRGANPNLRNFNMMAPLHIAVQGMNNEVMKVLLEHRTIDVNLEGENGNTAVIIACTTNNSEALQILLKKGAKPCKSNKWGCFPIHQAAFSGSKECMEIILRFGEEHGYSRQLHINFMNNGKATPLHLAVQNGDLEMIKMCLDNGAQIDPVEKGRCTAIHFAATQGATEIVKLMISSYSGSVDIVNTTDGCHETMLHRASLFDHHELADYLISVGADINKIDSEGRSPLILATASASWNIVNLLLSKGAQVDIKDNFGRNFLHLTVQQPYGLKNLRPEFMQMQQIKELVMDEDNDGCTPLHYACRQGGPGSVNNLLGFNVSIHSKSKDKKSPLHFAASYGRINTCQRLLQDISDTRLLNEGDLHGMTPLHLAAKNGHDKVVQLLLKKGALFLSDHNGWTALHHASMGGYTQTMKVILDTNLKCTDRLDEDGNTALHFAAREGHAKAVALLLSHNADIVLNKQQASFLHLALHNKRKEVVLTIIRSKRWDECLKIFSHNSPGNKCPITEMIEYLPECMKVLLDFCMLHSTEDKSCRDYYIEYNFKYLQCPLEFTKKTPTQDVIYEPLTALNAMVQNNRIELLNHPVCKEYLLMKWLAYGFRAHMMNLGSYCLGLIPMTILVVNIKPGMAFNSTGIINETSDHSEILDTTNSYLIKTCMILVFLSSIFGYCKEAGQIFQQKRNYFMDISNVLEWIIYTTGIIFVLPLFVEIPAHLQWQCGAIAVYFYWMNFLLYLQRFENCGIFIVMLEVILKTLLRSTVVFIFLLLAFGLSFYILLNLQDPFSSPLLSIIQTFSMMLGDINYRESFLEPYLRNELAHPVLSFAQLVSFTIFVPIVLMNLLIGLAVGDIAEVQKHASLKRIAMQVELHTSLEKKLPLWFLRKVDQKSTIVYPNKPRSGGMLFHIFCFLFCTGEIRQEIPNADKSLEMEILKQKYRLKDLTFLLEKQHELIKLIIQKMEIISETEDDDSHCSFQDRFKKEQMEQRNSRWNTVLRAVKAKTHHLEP
Test: In vitro inhibition of human TRPA1, whole cell patch configuration
Conditions: current activation 10 μM AITC, tested concentrations 320 pM to 3.2 μM, read-out: hTRPA1 IC50
Lab note: anything with IC50 below 4 nM is marked Y; values at 4 nM or higher are marked N.

| COMPOUND | TARGET_SYSTEM | QUALITATIVE_LABEL |
| --- | --- | --- |
| CC(=O)Cn1c(=O)c2c(ncn2[C@@H](C)C(=O)Nc2cncc(-c3cnc(N4CC5CC5C4)nc3)n2)n(C)c1=O (stereo partly shown) | human TRPA1 (Homo sapiens (Human), UniProt O75762) | N |
| CC#CCn1c(=O)c2c(ncn2[C@@H](C)C(=O)Nc2cccc(-c3cnc(N4CC5CC5C4)nc3)n2)n(C)c1=O (stereo partly shown) | human TRPA1 (Homo sapiens (Human), UniProt O75762) | N |
| C[C@@H](C(=O)Nc1csc(-c2cnc(N3CC4C(C3)C4(F)F)nc2)n1)n1cnc2c1c(=O)n(CC#N)c(=O)n2C (stereo partly shown) | human TRPA1 (Homo sapiens (Human), UniProt O75762) | Y |
| Cc1cc(Cn2c(=O)c3c(ncn3[C@@H](C)C(=O)Nc3cccc(-c4ccc(C(F)(F)F)cc4)n3)n(C)c2=O)no1 | human TRPA1 (Homo sapiens (Human), UniProt O75762) | N |
| COCC(=O)Cn1c(=O)c2c(ncn2[C@@H](C)C(=O)Nc2cccc(-c3cnc(N4CC5C(C4)C5(F)F)nc3)n2)n(C)c1=O (stereo partly shown) | human TRPA1 (Homo sapiens (Human), UniProt O75762) | Y |
| Cn1c(=O)n(Cc2ccccn2)c(=O)c2c1ncn2CC(=O)Nc1cccc(-c2ccc(Cl)cc2)n1 | human TRPA1 (Homo sapiens (Human), UniProt O75762) | N |

* * *

List of pIC50 values.
Target: human TRPA1 (Homo sapiens (Human), UniProt O75762)
Experiment: In vitro inhibition of human TRPA1, whole cell patch configuration
Conditions: current activation 10 μM AITC, tested concentrations 320 pM to 3.2 μM, read-out: hTRPA1 IC50
pIC50: −log10 of the molar value.

| COMPOUND | pIC50 |
| --- | --- |
| C[C@@H](C(=O)Nc1cccc(-c2cnc(C(F)(F)F)nc2)n1)n1cnc2c1c(=O)n(Cc1ccccn1)c(=O)n2C [Compound 5] | 7.41 |
| CC(=O)Cn1c(=O)c2c(ncn2[C@@H](C)C(=O)Nc2cccc(-c3cnc(N4CC5C(C4)C5(F)F)nc3)n2)n(C)c1=O (stereo partly drawn) [Compound 25] | 8.40 |
| COCC(=O)Cn1c(=O)c2c(ncn2[C@@H](C)C(=O)Nc2csc(-c3cnc(N4CC5C(C4)C5(F)F)nc3)n2)n(C)c1=O (stereo partly drawn) [Compound 265] | 8.52 |
| Cc1cc(Cn2c(=O)c3c(ncn3CC(=O)Nc3ccc(Br)c(C(F)(F)F)n3)n(C)c2=O)no1 [Compound 200] | 7.47 |
| CC#CCn1c(=O)c2c(ncn2[C@@H](C)C(=O)Nc2csc(-c3cnc(N4CC5CC5C4)nc3)n2)n(C)c1=O (stereo partly drawn) [Compound 145] | 8.70 |
| CC(=O)Cn1c(=O)c2c(ncn2[C@@H](C)C(=O)Nc2ccnc(-c3ccc(N4CC5C(C4)C5(F)F)nc3)n2)n(C)c1=O (stereo partly drawn) [Compound 69] | 8.15 |

* * *

List of Duration (0-2 Minutes) Average values.
System: formalin-induced pain behaviors in the rat
Assay: Formalin-induced pain test (formalin model), duration of pain behaviors
Format: in vivo
Conditions: 1 mg/kg PO one hour prior to formalin, solution in 4% DMSO, 5% Tween-80, 20% Cremophor EL, 71% water

| COMPOUND | UNIT_STRING | Duration (0-2 Minutes) Average |
| --- | --- | --- |
| Cc1noc(Cn2c(=O)c3c(ncn3[C@@H](C)C(=O)Nc3cccc(-c4cnc(C(F)(F)F)nc4)n3)n(C)c2=O)n1 [Compound 104] | s | 98.5 |
| COCC(=O)Cn1c(=O)c2c(ncn2[C@@H](C)C(=O)Nc2csc(-c3cnc(N4CC5CC5C4)nc3)n2)n(C)c1=O (stereo partly drawn) [Compound 105] | s | 97.9 |
| CC(=O)Cn1c(=O)c2c(ncn2[C@@H](C)C(=O)Nc2cccc(-c3cnc(C)c(C(F)(F)F)c3)n2)n(C)c1=O [Compound 97] | s | 69.3 |
| CCC(=O)Cn1c(=O)c2c(ncn2[C@@H](C)C(=O)Nc2csc(-c3cnc(N4CCC[C@H]4C(F)(F)F)nc3)n2)n(C)c1=O [Compound 18] | s | 78.0 |
| Cc1cc(Cn2c(=O)c3c(ncn3[C@@H](C)C(=O)Nc3cncc(-c4cnc(C(F)(F)F)nc4)n3)n(C)c2=O)no1 [Compound 21] | s | 99.6 |
| Cc1nc(Cn2c(=O)c3c(ncn3CC(=O)Nc3csc(-c4cnc(C(F)(F)F)c(C)c4)n3)n(C)c2=O)no1 [Compound 253] | s | 79.3 |

* * *

Target: human TRPA1 (Homo sapiens (Human))
Assay: In vitro inhibition of human TRPA1, whole cell patch configuration
Conditions: current activation 10 μM AITC, tested concentrations 320 pM to 3.2 μM, read-out: hTRPA1 IC50
pIC50: −log10 of the molar value.

| MOLECULE | pIC50 |
| --- | --- |
| CCC(=O)Cn1c(=O)c2c(ncn2[C@@H](C)C(=O)Nc2csc(-c3ccc(N4CC5C(C4)C5(F)F)nc3)n2)n(C)c1=O (stereo partly drawn) | 9.00 |
| Cc1nc(Cn2c(=O)c3c(ncn3CC(=O)Nc3csc(-c4cnc(C)c(C(F)(F)F)c4)n3)n(C)c2=O)no1 | 8.40 |
| COCC(=O)Cn1c(=O)c2c(ncn2[C@@H](C)C(=O)Nc2cccc(-c3cnc(C(F)(F)F)nc3)n2)n(C)c1=O | 7.35 |

* * *

List of log10(IC50) values.
Target: UniProtKB O75762
Experiment: In vitro inhibition of human TRPA1, whole cell patch configuration
Details: current activation 10 μM AITC, tested concentrations 320 pM to 3.2 μM, read-out: hTRPA1 IC50
METRIC_NAME: log10(IC50) (log10 of the value in nM)

| COMPOUND | log10(IC50) |
| --- | --- |
| Cc1noc(Cn2c(=O)c3c(ncn3CC(=O)Nc3cncc(-c4cnc(C(F)(F)F)c(C)c4)n3)n(C)c2=O)n1 | 1.15 |
| Cc1cc(Cn2c(=O)c3c(ncn3[C@@H](C)C(=O)Nc3cccc(-c4cnc(C)c(C)c4)n3)n(C)c2=O)no1 | 1.40 |
| Cc1nc2c(c(=O)n(Cc3ccccn3)c(=O)n2C)n1CC(=O)Nc1cccc(-c2ccc(Cl)cc2)n1 | 1.38 |
| CC(=O)Cn1c(=O)c2c(ncn2CC(=O)Nc2cncc(-c3cnc(C)c(C(F)(F)F)c3)n2)n(C)c1=O | 0.90 |
| CC(=O)Cn1c(=O)c2c(nc(C)n2CC(=O)Nc2cccc(-c3ccc(Cl)cc3)n2)n(C)c1=O | 1.52 |
| Cc1cc(Cn2c(=O)c3c(ncn3CC(=O)Nc3cccc(-c4cnc(C)c(C(F)(F)F)c4)n3)n(C)c2=O)no1 | 0.60 |
| CC(=O)Cn1c(=O)c2c(ncn2[C@@H](C)C(=O)Nc2cccc(-c3cnc(C)c(C(F)(F)F)c3)n2)n(C)c1=O | 0.70 |
| Cc1cc(Cn2c(=O)c3c(ncn3[C@@H](C)C(=O)Nc3cccc(-c4cnc(Cl)c(C(F)(F)F)c4)n3)n(C)c2=O)no1 | 0.30 |
| Cc1cc(Cn2c(=O)c3c(ncn3CC(=O)Nc3ccc(C#N)c(C(F)(F)F)n3)n(C)c2=O)no1 | 2.49 |
| C[C@@H](C(=O)Nc1cccc(-c2cnc(C(F)(F)F)nc2)n1)n1cnc2c1c(=O)n(CC1CCO1)c(=O)n2C (some centres unmarked) | 2.95 |
| CC(=O)Cn1c(=O)c2c(ncn2CC(=O)Nc2cccc(-c3cnc(N4CCC[C@H]4C(F)(F)F)nc3)n2)n(C)c1=O | 0.48 |
| CC(=O)Cn1c(=O)c2c(ncn2[C@@H](C)C(=O)Nc2csc(-c3cnc(N4CC5C(C4)C5(F)F)nc3)n2)n(C)c1=O (some centres unmarked) | 0.48 |
| C[C@@H](C(=O)Nc1cncc(-c2ccc(N3CC4CC4C3)nc2)n1)n1cnc2c1c(=O)n(CC#N)c(=O)n2C (some centres unmarked) | 0.90 |
| C[C@@H](C(=O)Nc1cccc(-c2cnc(N3CC4CC4C3)nc2)n1)n1cnc2c1c(=O)n(CC#N)c(=O)n2C (some centres unmarked) [Compound 149] | 0.30 |

* * *

List of PWL Change values.
System: CFA-induced cold hypersensitivity of the hind paw
Assay: CFA-induced pain test, cold hypersensitivity (cold plate paw withdrawal latency)
Type: in vivo
Conditions: 1 mg/kg PO, 1-2 hour pre-treatment; cold plate 1° C.; solution in 4% DMSO; 5% Tween-80; 20% Cremophor EL; and 71% water
METRIC_NAME: PWL Change (s)

| MOLECULE | UNIT_STRING | NUMERIC_RESULT |
| --- | --- | --- |
| COCC(=O)Cn1c(=O)c2c(ncn2[C@@H](C)C(=O)Nc2csc(-c3cnc(N4CC5CC5C4)nc3)n2)n(C)c1=O (stereo partly drawn) | s | 112.8 |
| CC(=O)Cn1c(=O)c2c(ncn2[C@@H](C)C(=O)Nc2cccc(-c3cnc(N4CC5C(C4)C5(F)F)nc3)n2)n(C)c1=O (stereo partly drawn) | s | 119.7 |
| CC(=O)Cn1c(=O)c2c(ncn2[C@@H](C)C(=O)Nc2ccnc(-c3cnc(N4CC5C(C4)C5(F)F)nc3)n2)n(C)c1=O (stereo partly drawn) | s | 139.4 |
| C[C@@H](C(=O)Nc1csc(-c2cnc(N3CC4CC4C3)nc2)n1)n1cnc2c1c(=O)n(CC#N)c(=O)n2C (stereo partly drawn) | s | 107.4 |
| CCC(=O)Cn1c(=O)c2c(ncn2[C@@H](C)C(=O)Nc2csc(-c3cnc(N4CCC[C@H]4C(F)(F)F)nc3)n2)n(C)c1=O | s | 149.7 |
| CC(=O)Cn1c(=O)c2c(ncn2[C@@H](C)C(=O)Nc2cncc(-c3cnc(N4CC5C(C4)C5(F)F)nc3)n2)n(C)c1=O (stereo partly drawn) | s | 181.0 |
